- test description: Specific surface area measurement (BET, Coulter SA3100)
- Assay type: physicochemical
- setup conditions: BET, cell volume = 9 cm^3; HCl
Counter-ions that a name gives are not always drawn.
Quick rule: Specific surface area of at least 5 m^2/g means satisfied, below that means not satisfied.

# example entries with known answers
O=C1Cc2cc(CCN3CCN(c4nsc5ccccc45)CC3)c(Cl)cc2N1 [Example 15, ziprasidone HCl, reference compound]	not satisfied
O=C1Cc2cc(CCN3CCN(c4nsc5ccccc45)CC3)c(Cl)cc2N1 [Example 16, ziprasidone HCl]	satisfied
O=C1Cc2cc(CCN3CCN(c4nsc5ccccc45)CC3)c(Cl)cc2N1 [Example 19, ziprasidone HCl]	satisfied

In: // inclusive: Specific surface area at least 5 m^2/g? input: O=C1Cc2cc(CCN3CCN(c4nsc5ccccc45)CC3)c(Cl)cc2N1 [Repetition of U.S. Pat. No. 5,312,925 Example 2] [ziprasidone HCl, reference compound]
Out: not satisfied

In: // inclusive: Specific surface area at least 5 m^2/g? input: O=C1Cc2cc(CCN3CCN(c4nsc5ccccc45)CC3)c(Cl)cc2N1 [Repetition of U.S. Pat. No. 6,150,366 Example 10] [ziprasidone HCl, reference compound]
Out: not satisfied
